# target-or-test-system: Coagulation factor X and plasma kallikrein (Homo sapiens) (UniProt P03952+P00742)
# Sequence (P00742 whole entry, looked up): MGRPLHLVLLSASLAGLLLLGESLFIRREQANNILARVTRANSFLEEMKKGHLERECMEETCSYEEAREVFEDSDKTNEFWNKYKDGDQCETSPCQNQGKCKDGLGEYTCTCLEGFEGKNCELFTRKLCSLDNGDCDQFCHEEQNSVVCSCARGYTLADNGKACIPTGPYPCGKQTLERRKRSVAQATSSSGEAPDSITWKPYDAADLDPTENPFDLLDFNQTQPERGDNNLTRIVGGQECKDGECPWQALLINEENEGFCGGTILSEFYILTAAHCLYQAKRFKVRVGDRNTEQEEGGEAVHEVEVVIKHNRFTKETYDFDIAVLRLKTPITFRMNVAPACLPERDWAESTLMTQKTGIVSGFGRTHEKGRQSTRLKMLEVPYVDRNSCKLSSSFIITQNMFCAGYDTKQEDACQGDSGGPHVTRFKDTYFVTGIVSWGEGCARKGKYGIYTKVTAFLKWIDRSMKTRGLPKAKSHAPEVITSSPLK
# Sequence (P03952 whole entry, looked up): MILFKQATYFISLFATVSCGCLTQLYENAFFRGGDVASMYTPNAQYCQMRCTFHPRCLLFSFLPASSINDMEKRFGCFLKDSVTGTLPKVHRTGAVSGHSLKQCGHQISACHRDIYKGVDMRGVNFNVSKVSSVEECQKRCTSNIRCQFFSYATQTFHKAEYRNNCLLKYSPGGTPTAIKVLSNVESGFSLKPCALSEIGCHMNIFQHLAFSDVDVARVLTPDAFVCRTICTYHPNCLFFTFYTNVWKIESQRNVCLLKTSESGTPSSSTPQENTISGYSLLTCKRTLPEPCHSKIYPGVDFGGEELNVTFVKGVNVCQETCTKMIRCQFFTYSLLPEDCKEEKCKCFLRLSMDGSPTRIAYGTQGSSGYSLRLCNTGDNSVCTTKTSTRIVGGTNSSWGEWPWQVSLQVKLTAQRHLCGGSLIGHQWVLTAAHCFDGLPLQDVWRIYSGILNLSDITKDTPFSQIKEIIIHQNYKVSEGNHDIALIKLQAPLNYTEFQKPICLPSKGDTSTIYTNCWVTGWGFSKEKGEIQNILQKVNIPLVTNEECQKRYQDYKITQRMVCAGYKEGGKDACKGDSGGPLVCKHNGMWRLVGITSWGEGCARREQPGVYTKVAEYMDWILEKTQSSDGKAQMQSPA
# protocol: Selectivity for plasma kallikrein over f10a
# Format: cell-free
test-readout: Selectivity ratio

{"molecule": "Cc1ccccc1-c1cc(C(CC(=O)O)C(=O)O)cc(-c2nc3cc(C(=N)N)ccc3[nH]2)c1O (stereo not drawn)", "Selectivity ratio": 110}
{"molecule": "Cc1cccc(-c2cc(C(CC(=O)O)C(=O)O)cc(-c3nc4cc(C(=N)N)ccc4[nH]3)c2O)c1 (stereo not drawn)", "Selectivity ratio": 600}
{"molecule": "COc1ccccc1-c1cc(C(CC(=O)O)C(=O)O)cc(-c2nc3cc(C(=N)N)ccc3[nH]2)c1O (stereo not drawn)", "Selectivity ratio": 1190}

P: N=C(N)c1ccc2[nH]c(-c3cc(C(CC(=O)O)C(=O)O)cc(-c4ccccc4O)c3O)nc2c1 (stereo not drawn)
Q: N=C(N)c1ccc2[nH]c(-c3cc(C(CC(=O)O)C(=O)O)cc(-c4cccc(C(N)=O)c4)c3O)nc2c1 (stereo not drawn)
R: N#Cc1cccc(-c2cc(C(CC(=O)O)C(=O)O)cc(-c3nc4cc(C(=N)N)ccc4[nH]3)c2O)c1 (stereo not drawn)
S: N=C(N)c1ccc2[nH]c(-c3cc(C(CC(=O)O)C(=O)O)cc(-c4cccc(O)c4)c3O)nc2c1 (stereo not drawn)
T: Cc1ccc(-c2cc(C(CC(=O)O)C(=O)O)cc(-c3nc4cc(C(=N)N)ccc4[nH]3)c2O)cc1 (stereo not drawn)
Ask: Order the items by recorded Selectivity ratio; the first position goes to the largest value. Form entry: ranked labels (order as requested).
Reply: Q, S, P, T, R
(Q: 10300, S: 1200, P: 460, T: 240, R: 150)

###

# protocol: Alpha half life in Sprague-Dawley rat at 1 mg/kg, iv
# Assay type: ADME, organism-based
# Set-up: dose 1 mg/kg, route intravenous
# conditions-used: in vivo
test-readout: half-life (min)
Reply numerically in min, unit not repeated.

Measured half-life of N=C(N)c1ccc2[nH]c(-c3cc(C(CC(=O)O)C(=O)O)cc(-c4cccc(C(N)=O)c4)c3O)nc2c1 (stereo unspecified) : 2

###

# Species on record: Homo sapiens
# protocol: Selectivity for plasma kallikrein over f7a
# Assay type: cell-free
test-readout: Selectivity ratio

I: N=C(N)c1ccc2[nH]c(-c3cc(C(CC(=O)O)C(=O)O)cc(-c4ccc(Cl)cc4)c3O)nc2c1 (centres undefined)
II: N=C(N)c1ccc2[nH]c(-c3cc(C(CC(=O)O)C(=O)O)cc(-c4cccc(C(N)=O)c4)c3O)nc2c1 (centres undefined)
Ask: Smaller Selectivity ratio value? Options are I and II Lab note: record the label of whichever item you select.
Reply: I

P: N=C(N)c1ccc2[nH]c(-c3cc(C(CC(=O)O)C(=O)O)cc(-c4ccc(O)cc4)c3O)nc2c1 (centres undefined)
Q: Cc1ccc(-c2cc(C(CC(=O)O)C(=O)O)cc(-c3nc4cc(C(=N)N)ccc4[nH]3)c2O)cc1 (centres undefined)
Ask: # argmax over Selectivity ratio for candidates P and Q Respond using the label that marks the chosen record.
Reply: Q

Data provenance: ChEMBL document CHEMBL1146109
